# measured.target: UniProtKB P27958
# protocol: HCV Ki assay (HPLC microbore separation of 5AB substrate and products)
# Assay type: biochemical
pKi: −log10 of the molar value. *1 amine or outer side, *2 acyl side, *3 side chain or, on linkers, in order; H or OH if unused. Where a SMILES comes first, the peptide text is derived from it. [ ]: non-standard residue; d: D form. The star is where a group is joined. Oic = O=C(O)[C@@H]1C[C@@H]2CCCC[C@@H]2N1; X2 = CCC[C@H](N[*:1])C(=O)C(=O)[*:2]; Chg = N[C@H](C(=O)O)C1CCCCC1; Tle = CC(C)(C)[C@H](N)C(=O)O; Hiv = CC(C)[C@H](O)C(=O)O; NHcPr = C1CC1N*
measurement.label: pKi

compound: CCC[C@H](NC(=O)[C@@H]1C[C@@H]2CCCC[C@@H]2N1C(=O)[C@@H](NC(=O)[C@@H](NC(=O)c1[nH]ncc1[N+](=O)[O-])C1CCCCC1)C(C)(C)C)C(=O)C(=O)NC1CC1 [Compound 13a]
measurement.label: pKi
reported.value: > 6.30
//
compound: CCC[C@H](NC(=O)[C@@H]1C[C@@H]2CCCC[C@@H]2N1C(=O)[C@@H](NC(=O)[C@@H](NC(=O)c1[nH]c(C)c(C)c1C(C)=O)C(C)C)C(C)(C)C)C(=O)C(=O)NC1CC1 [Compound 58a]
measurement.label: pKi
reported.value: > 6.30
//
compound: CCC[C@H](NC(=O)[C@@H]1C[C@@H]2CCCC[C@@H]2N1C(=O)[C@@H](NC(=O)[C@@H](NC(=O)[C@@H](O)C(C)C)C1CCCCC1)C(C)(C)C)C(=O)C(=O)NC1CC1 [Compound 23a] (H-[Hiv][Chg][Tle][Oic][X2]-NHcPr)
measurement.label: pKi
reported.value: > 6.30
//
compound: CCC[C@H](NC(=O)[C@@H]1C[C@@H]2CCCC[C@@H]2N1C(=O)[C@@H](NC(=O)[C@@H](NC(=O)C(=O)C(C)C)C1CCCCC1)C(C)(C)C)C(=O)C(=O)NC1CC1 [Compound 24a]
measurement.label: pKi
reported.value: > 6.30
//
compound: CCC[C@H](NC(=O)[C@@H]1C[C@@H]2CCCC[C@@H]2N1C(=O)[C@@H](NC(=O)[C@@H](NC(=O)[C@@H]1Cc2ccccc2N1)C1CCCCC1)C(C)(C)C)C(=O)C(=O)NC1CC1 [Compound 46a]
measurement.label: pKi
reported.value: > 6.30

---

# measured.target: HCV NS3-NS4A protease (tNS3 with KK4A) (Hepatitis C virus genotype 1a)
# Sequence (P27958 1027-1208): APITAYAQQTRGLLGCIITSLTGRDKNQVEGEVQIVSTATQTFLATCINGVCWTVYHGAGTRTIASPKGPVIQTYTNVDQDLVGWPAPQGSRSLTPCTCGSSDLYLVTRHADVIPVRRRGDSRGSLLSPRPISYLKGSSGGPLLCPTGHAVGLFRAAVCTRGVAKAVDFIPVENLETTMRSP
# protocol: HCV Ki assay (HPLC microbore separation of 5AB substrate and products)
# Format: biochemical
pKi: −log10 of the molar value. *1 amine or outer side, *2 acyl side, *3 side chain or, on linkers, in order; H or OH if unused. Where a SMILES comes first, the peptide text is derived from it. [ ]: non-standard residue; d: D form. The star is where a group is joined. Oic = O=C(O)[C@@H]1C[C@@H]2CCCC[C@@H]2N1; Pyrazinecarbonyl = O=C(c1cnccn1)*; X1 = CCCC(N[*:1])C(=O)C(=O)[*:2]

molecule: CCC[C@H](NC(=O)[C@@H]1[C@H]2CC[C@H](C2)N1C(=O)[C@@H](NC(=O)[C@@H](NC(=O)c1[nH]c(C)c(C)c1C(C)=O)C1CCCCC1)C(C)(C)C)C(=O)C(=O)NC1CC1
measured.target: HCV NS3-NS4A protease (tNS3 with KK4A) (Hepatitis C virus genotype 1a)
pKi: > 6.30

molecule: CCCC(NC(=O)[C@@H]1C[C@@H]2CCCC[C@@H]2N1C(=O)[C@@H](NC(=O)[C@@H](NC(=O)c1cnccn1)C(C)C)C(C)C)C(=O)C(=O)N[C@@H](Cc1ccccc1)C(=O)O (stereo partly shown) [Compound 1a] (Pyrazinecarbonyl-VV[Oic][X1]F-OH)
measured.target: HCV NS3-NS4A protease (tNS3 with KK4A) (Hepatitis C virus genotype 1a)
pKi: > 6.30

molecule: CCC[C@H](NC(=O)[C@@H]1C[C@@H]2CCCC[C@@H]2N1C(=O)[C@@H](NC(=O)[C@@H](NC(=O)c1cc(Cl)c(Cl)[nH]1)C1CCCCC1)C(C)(C)C)C(=O)C(=O)NC1CC1 [Compound 43a]
measured.target: HCV NS3-NS4A protease (tNS3 with KK4A) (Hepatitis C virus genotype 1a)
pKi: > 6.30

molecule: CCC[C@H](NC(=O)[C@@H]1C[C@@H]2CCCC[C@@H]2N1C(=O)[C@@H](NC(=O)[C@@H](NC(=O)c1ccc[nH]1)C1CCCCC1)C(C)(C)C)C(=O)C(=O)NC1CC1 [Compound 11a]
measured.target: HCV NS3-NS4A protease (tNS3 with KK4A) (Hepatitis C virus genotype 1a)
pKi: > 6.30

molecule: CCC[C@H](NC(=O)[C@@H]1C[C@@H]2CCCC[C@@H]2N1C(=O)[C@@H](NC(=O)[C@@H](NC(=O)c1cnccn1)C1CCCCC1)C(C)(C)C)C(=O)C(=O)N(C)C [Compound 50a]
measured.target: HCV NS3-NS4A protease (tNS3 with KK4A) (Hepatitis C virus genotype 1a)
pKi: 5.30 to 6.00

molecule: CCC[C@H](NC(=O)[C@@H]1C[C@@H]2CCCC[C@@H]2N1C(=O)[C@@H](NC(=O)[C@H](C1CCCCC1)N1C(=O)c2ccccc2C1=O)C(C)(C)C)C(=O)C(=O)NC1CC1 [Compound 57a]
measured.target: HCV NS3-NS4A protease (tNS3 with KK4A) (Hepatitis C virus genotype 1a)
pKi: > 6.30

molecule: CCC[C@H](NC(=O)[C@@H]1C[C@@H]2CCCC[C@@H]2N1C(=O)[C@@H](NC(=O)[C@@H](NC(=O)c1cccnc1)C1CCCCC1)C(C)(C)C)C(=O)C(=O)NC1CC1 [Compound 31a]
measured.target: HCV NS3-NS4A protease (tNS3 with KK4A) (Hepatitis C virus genotype 1a)
pKi: > 6.30

molecule: CCC[C@H](NC(=O)[C@@H]1C[C@@H]2CCCC[C@@H]2N1C(=O)[C@@H](NC(=O)[C@@H](NC(=O)c1ccnn1C)C1CCCCC1)C(C)(C)C)C(=O)C(=O)NC1CC1 [Compound 17a]
measured.target: HCV NS3-NS4A protease (tNS3 with KK4A) (Hepatitis C virus genotype 1a)
pKi: 5.30 to 6.00

molecule: CCC[C@H](NC(=O)[C@@H]1C[C@@H]2CCCC[C@@H]2N1C(=O)[C@@H](NC(=O)[C@@H](NC(=O)c1cnc2ccccc2n1)C1CCCCC1)C(C)(C)C)C(=O)C(=O)NC1CC1 [Compound 35a]
measured.target: HCV NS3-NS4A protease (tNS3 with KK4A) (Hepatitis C virus genotype 1a)
pKi: > 6.30

molecule: CCC[C@H](NC(=O)[C@@H]1C[C@@H]2CCCC[C@@H]2N1C(=O)[C@@H](NC(=O)[C@@H](NC(=O)c1[nH]ncc1Cl)C1CCCCC1)C(C)(C)C)C(=O)C(=O)NC1CC1 [Compound 38a]
measured.target: HCV NS3-NS4A protease (tNS3 with KK4A) (Hepatitis C virus genotype 1a)
pKi: 6.00 to 6.30

---

# measured.target: HCV NS3-NS4A protease (tNS3 with KK4A) (Hepatitis C virus genotype 1a)
# protocol: HCV Ki assay (HPLC microbore separation of 5AB substrate and products)
# Format: biochemical
*1 amine or outer side, *2 acyl side, *3 side chain or, on linkers, in order; H or OH if unused. Where a SMILES comes first, the peptide text is derived from it. [ ]: non-standard residue; d: D form. The star is where a group is joined. Oic = O=C(O)[C@@H]1C[C@@H]2CCCC[C@@H]2N1; X2 = CCC[C@H](N[*:1])C(=O)C(=O)[*:2]; Pyrazinecarbonyl = O=C(c1cnccn1)*; Chg = N[C@H](C(=O)O)C1CCCCC1; Tle = CC(C)(C)[C@H](N)C(=O)O

molecule: CCC[C@H](NC(=O)[C@@H]1C[C@@H]2CCCC[C@@H]2N1C(=O)[C@@H](NC(=O)[C@@H](NC(=O)c1cc([N+](=O)[O-])n[nH]1)C1CCCCC1)C(C)(C)C)C(=O)C(=O)NC1CC1 [Compound 14a]
Ki: < 500 nM

molecule: CCCC(NC(=O)[C@@H]1C[C@@H]2CCCC[C@@H]2N1C(=O)[C@@H](NC(=O)[C@@H](NC(=O)c1cnccn1)C(C)C)C(C)C)C(=O)C(=O)NC1CC1 (stereo partly drawn)
Ki: 500 to 1000 nM

molecule: CCC[C@H](NC(=O)[C@@H]1C[C@@H]2CCCC[C@@H]2N1C(=O)[C@@H](NC(=O)[C@@H](NC(=O)C1(O)CCCC1)C1CCCCC1)C(C)(C)C)C(=O)C(=O)NC1CC1 [Compound 22a]
Ki: 500 to 1000 nM

molecule: CCC[C@H](NC(=O)[C@@H]1C[C@@H]2CCCC[C@@H]2N1C(=O)[C@@H](NC(=O)[C@@H](NC(=O)c1cc2cc(C(C)=O)ccc2[nH]1)C1CCCCC1)C(C)(C)C)C(=O)C(=O)NC1CC1 [Compound 40a]
Ki: < 500 nM

molecule: CCC[C@H](NC(=O)[C@@H]1C[C@@H]2CCCC[C@@H]2N1C(=O)[C@@H](NC(=O)[C@@H](NC(=O)[C@@](C)(O)c1ccccc1)C1CCCCC1)C(C)(C)C)C(=O)C(=O)NC1CC1 [Compound 19a]
Ki: < 500 nM

molecule: CCC[C@H](NC(=O)[C@@H]1C[C@@H]2CCCC[C@@H]2N1C(=O)[C@@H](NC(=O)[C@@H](NC(=O)c1cnccn1)C1CCCCC1)C(C)(C)C)C(=O)C(=O)NCC(=O)N(C)C [Compound 54a] (Pyrazinecarbonyl-[Chg][Tle][Oic][X2]G-NMe2)
Ki: 1000 to 5000 nM

molecule: CCC[C@H](NC(=O)[C@@H]1C[C@@H]2CCCC[C@@H]2N1C(=O)[C@@H](NC(=O)[C@@H](NC(=O)c1[nH]c(C)c(C(=O)c2ccccc2)c1C#N)C1CCCCC1)C(C)(C)C)C(=O)C(=O)NC1CC1 [Compound 34a]
Ki: < 500 nM

molecule: CCCC(NC(=O)[C@@H]1C[C@@H]2CCCC[C@@H]2N1C(=O)[C@@H](NC(=O)[C@@H](NC(=O)c1cnccn1)C1CCCCC1)C(C)C)C(=O)C(=O)NC1CC1 (stereo partly drawn)
Ki: < 500 nM

molecule: CCC[C@@H](NC(=O)[C@@H]1C[C@@H]2CCCC[C@@H]2N1C(=O)[C@@H](NC(=O)[C@@H](NC(=O)c1[nH]c(C)c(C)c1C(C)=O)C1CCCCC1)C(C)(C)C)C(=O)C(=O)NC1CC1 [Compound 41a]
Ki: 1000 to 5000 nM
